- Test system: MDA-MB-436
- assay.text: CTG experiment on cell activity (CellTiter-Glo, 7 days)
- Type: cell-based
- condition.parameters: Homo sapiens, 168 h, MDA-MB-436 cells, cultured for 7 days
Reported values of log10(IC50) for individual entries
measured.attribute: log10(IC50) (log10 of the value in nM)

compound: CC(C)c1ccccc1-c1nc(NCc2ccc3c(c2)CCN(C)C3=O)c2occc2n1 [Example 77]
log10(IC50): 3.26

compound: COc1ncnc(C2CC2)c1-c1nc(NCc2ccc3c(c2)CCN(C(C)C)C3=O)c2occc2n1 [Example 115]
log10(IC50): 3.21

compound: COc1cnc(-c2cccc3ccn(C)c23)nc1NCc1ccc(-n2nc(C(F)(F)F)cc2C)cc1 [Example 144]
log10(IC50): 3.22

compound: COc1ncnc(C2CC2)c1-c1nc(NCc2ccc(OC3CC(OC)C3)cc2)c2occc2n1 (centres unmarked) [Example 118]
log10(IC50): 3.17

compound: COc1cnc(-c2ccccc2C(C)C)nc1NCc1ccc(OCc2ccccn2)cc1 [Example 67]
log10(IC50): 3.07

compound: COc1ncnc(C2CC2)c1-c1ncc2c(n1)N(CC1CCC(c3nc(C(F)(F)F)cn3C)CC1)CCO2 (centres unmarked) [Compound 22]
log10(IC50): 2.32

compound: CCOCCOc1ccc(CNc2nc(-c3ccccc3C(C)C)nc3ccoc23)cc1 [Example 79]
log10(IC50): 3.08

compound: COc1cnc(-c2ccccc2C(C)C)nc1N(C)Cc1ccc(-c2ccccn2)cc1 [Compound 1]
log10(IC50): 3.10

compound: CC(C)c1ccccc1-c1ncc(N2CCOCC2)c(NCc2ccc(-c3nc(C(F)(F)F)cn3C)cc2)n1 [Example 87]
log10(IC50): 3.42

compound: COc1cnc(-c2cccc3c2N(C)CC3)nc1NCc1ccc(-n2ncc(C(F)(F)F)c2C)cc1 [Example 146]
log10(IC50): 3.03

compound: COc1cnc(-c2cccc3ccn(C)c23)nc1NCc1ccc(-c2nc(C(F)(F)F)cn2C)cc1 [Example 143]
log10(IC50): 3.16

compound: COc1cnc(-c2ccccc2C(C)C)nc1NCC1CCC(c2nc(C(F)(F)F)cn2C)CC1 (centres unmarked) [Compound 6]
log10(IC50): 0.30

Where these numbers come from: patent US20250289799A1
